Measurement target: T1, human SIRPα on cells (human, UniProt P78324 31-504)
T1 construct: Whole entry
Method notes: flow cytometry;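 note: antibody binding to cells detected with a PE-labelled secondary antibody, given as mean fluorescence intensity relative to background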
For each record, write down the corresponding FOB.
One number for each entry, in fold over background.

Binder	Units	Result number
SB-40-20 (antibody, V domains shown, IgG) VH: QVQLVQSGAEVKKPGASVKVSCKASGYTFTSFYISWVRQAPGQGLEWMGIINPSSGHTNYAQKLQGRVTMTTDTSTSTAYMELSSLRSEDTAVYYCARDTGEYSYSPHGMDVWGQGTTVTVSS VL: EIVLTQSPATLSLSPGERATLSCRASQSVSSYLAWYQQKPGQAPRLLIYDSSNRATGIPARFSGSGSGTDFTLTISSLEPEDFAVYYCQQRDEHPPWTFGGGTKVEIK	fold over background	1

Count: 5. Required value per item: FOB.
1. SB-1-5 (antibody, V domains shown, IgG) VH: QVQLVESGGGVVQPGRSLRLSCAASGFTFSAYGMNWVRQAPGKGLEWVSAISASGRSTFYADSVKGRFTISRDNSKNTLYLQMNSLRAEDTAVYYCAKDFTEVVGWLGMDVWGQGTTVTVSS VL: EIVMTQSPGTLSLSPGERATLSCRASQSVSSSYLAWYQQKPGQAPRLLIYGASSRATGIPDRFSGSGSGTDFTLTISRLEPEDFAVYYCQLLGSSPRTFGGGTKVEIK
2. SB-8 (antibody, V domains shown, IgG; also called SB-8 (p)) VH: QVQLQESGPGLVKPSETLSLTCAVSGYSISSGYYWGWIRQPPGKGLEWIGSIYHSGSTYYNPSLKSRVTISVDTSKNQFSLKLSSVTAADTAVYYCARGGAMTPAGMDVWGQGTTVTVSS VL: EIVMTQSPGTLSLSPGERATLSCRASQSVSSSYLAWYQQKPGQAPRLLIYGASNRATGIPDRFSGSGSGTDFTLTISRLEPEDFAVYYCQQVYSSPYTFGGGTKVEIK
3. SB-2-11 (antibody, V domains shown, IgG) VH: QVQLVESGGGLVQPGGSLRLSCAASGFTFARYGMHWVRQAPGKGLEWVSAISGLAGPTYADSVKGRFTISRDNSKNTLYLQMNSLRAEDTAVYYCARDQTAAWGIWGMDVWGQGTTVTVSS VL: EIVLTQSPGTLSLSPGERATLSCRASQSVSSSYLAWYQQKPGQAPRLLIYGASSRATGIPDRFSGSGSGTDFTLTISRLEPEDFAVYYCQQSSSHPFTFGGGTKVEIK
4. SB-8-15 (antibody, V domains shown, IgG) VH: QVQLQESGPGLVKPSETLSLTCAVSGYSISAHYYWGWIRQPPGKGLEWIGSIYQSGHTYYNPSLKSRVTISVDTSKNQFSLKLSSVTAADTAVYYCARGGAMTPAGMDVWGQGTTVTVSS VL: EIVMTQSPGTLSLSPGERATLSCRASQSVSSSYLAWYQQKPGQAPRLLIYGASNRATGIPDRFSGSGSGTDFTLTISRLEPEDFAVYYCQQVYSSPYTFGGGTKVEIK
5. SB-2-9 (antibody, V domains shown, IgG) VH: QVQLVESGGGVVQPGRSLRLSCAASGFTFKTYGMHWVRQAPGKGLEWVAHIWYEGSNKVYADSVKGRFTISRDNSKNTLYLQMNSLRAEDTAVYYCARDQTAAAAIWGMDVWGQGTTVTVSS VL: EVVLTQSPGTLSLSPGERATLSCRASQSVSSSYLAWYQQKPGQAPRLLIYGASSRATGIPDRFSGSGSGTDFTLTISRLEPEDFAVYYCQQSSSHPFTFGGGTKVEIK

Result:
[1, 1, 0, 1, 1]

Request: Fill blank: measured FOB of the binder SB-1-3 (antibody, V domains shown, IgG) VH: EVQLVESGGGLVKPGGSLRLSCAASGFTFSAYGMNWVRQAPGKGLEWVSAITSSGRSTYYADSVKGRFTISRDNSKNTLYLQMNSLRAEDTAVYYCAKDFTEVVGWLGMDVWGQGTTVTVSS VL: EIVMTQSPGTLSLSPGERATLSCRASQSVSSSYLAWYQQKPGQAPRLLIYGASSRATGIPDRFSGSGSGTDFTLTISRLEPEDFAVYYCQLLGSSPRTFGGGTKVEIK is ____.
Result: 0

All figures here come from patent US20250026827A1.
